tested on: NCI-H1781; test: In vitro cytotoxicity (cell proliferation inhibition), SRB dye or Cell titer glo; type: cell-based, human; details: NCI-H1781, 144 hours
Square brackets hold non-standard residues; d marks the D form. Peptide text beside a SMILES is read from it. * marks the point of attachment. Dolaproine = CO[C@@H]([C@@H]1CCCN1)[C@@H](C)C(=O)O; Dil = CC[C@H](C)[C@H](NC)[C@@H](CC(=O)O)OC; X1 = C[C@@H](N*)[C@@H](O)c1ccccc1; NMeV = CN[C@H](C(=O)O)C(C)C
measuredParameter: CC50 (nM)

[
  {
    "compound": "CC[C@H](C)[C@@H]([C@@H](CC(=O)N1CCC[C@H]1[C@H](OC)[C@@H](C)C(=O)N[C@H](C)[C@@H](O)c1ccccc1)OC)N(C)C(=O)[C@@H](NC(=O)[C@@H](NC)C(C)C)C(C)C [MMAE, monomethyl auristatin E] (H-[NMeV]V[Dil][Dolaproine]-X1)",
    "targetEntity": "NCI-H1781",
    "obsValue": 0.208
  }
]
